test system: RXRa homodimer (NR concentration 180 nM); test: PBM binding z-score (relative to random genomic background probes); higher = stronger binding; sequences stand for … in GC…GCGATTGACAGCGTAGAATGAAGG
Measured PBM binding z-score values are reported for all entries that follow.
The answer should be a number; do not append a unit.

Construct sequence	PBM binding z-score
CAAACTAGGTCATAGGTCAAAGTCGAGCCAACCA	7.49
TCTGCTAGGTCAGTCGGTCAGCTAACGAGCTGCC	1.08
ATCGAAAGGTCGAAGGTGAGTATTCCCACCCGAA	5.41
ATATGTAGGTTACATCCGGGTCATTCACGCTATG	3.38
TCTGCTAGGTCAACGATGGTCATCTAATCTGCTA	2.9
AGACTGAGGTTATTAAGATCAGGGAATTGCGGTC	1.54

Problem: Look up PBM binding z-score for this sequence: `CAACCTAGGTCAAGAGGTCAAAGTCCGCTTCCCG`
Result: 8.82

Problem: Look up PBM binding z-score for this sequence: `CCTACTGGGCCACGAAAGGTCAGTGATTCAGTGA`
Result: 3.1

Problem: Look up PBM binding z-score for this sequence: `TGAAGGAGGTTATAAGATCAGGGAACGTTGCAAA`
Result: 1.56

Problem: Look up PBM binding z-score for this sequence: `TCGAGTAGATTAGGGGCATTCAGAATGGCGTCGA`
Result: 0.16

Problem: Look up PBM binding z-score for this sequence: `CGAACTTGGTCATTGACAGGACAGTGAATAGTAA`
Result: 0.621

Problem: Look up PBM binding z-score for this sequence: `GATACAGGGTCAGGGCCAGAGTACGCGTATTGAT`
Result: 4.15

Origin of values: the supplement of paper PMC6555819
